Values of pIC50 for 3',5'-cyclic-AMP phosphodiesterase 4D (Homo sapiens, UniProt Q08499), collected from a number of published sources:
pIC50: −log10 of the molar value.
Quick rule: pIC50 of at least 5 means satisfied, below that means not satisfied.

INPUT: Threshold query (pIC50 >= 5) on `O=c1c(O)c(-c2ccc(O)c(O)c2)oc2cc(O)cc(O)c12`
OUTPUT: satisfied

INPUT: And for CC1=C2C3CC(C)(C(c4ccccc4)c4c(O)c(C=O)c(O)c(C=O)c4O3)C2C2C(CC1)C2(C)C (stereo not shown) ?
OUTPUT: satisfied

INPUT: Do the same for CC1=CCCC2(C)Oc3c(C=O)c(O)c(C=O)c(O)c3C(c3ccccc3)C2C2C(CC1)C2(C)C (stereo not shown) please
OUTPUT: satisfied

INPUT: What would you report for C=C1CCC2Cc3c(O)c(C=O)c(O)c(C(=O)c4ccccc4)c3OC2(C)CCC2C1CC2(C)C (stereo not shown) ?
OUTPUT: satisfied

INPUT: Another molecule: `CNC(=O)c1c(N(C)C=O)ncn1C/C=C(\C)CC/C=C(\C)CCC/C(C)=C\C(=O)C=C(C)C`
OUTPUT: not satisfied

INPUT: Queued: CC1(C)C2CC3C(c4ccccc4)c4c(O)c(C=O)c(O)c(C=O)c4OC3(C)C1C2 (stereo not shown)
OUTPUT: not satisfied
